- Test system: Plasmodium falciparum
- RUN_DESCRIPTION: Antimalarial activity against multidrug-resistant Plasmodium falciparum W2
- Type: functional, organism-based
What pIC50 was measured for each of the following?
Give bare numbers, as −log10 of the molar value.

Here's what some known entries look like.
CCCN(CCCCNc1ccnc2cc(Cl)ccc12)Cc1cc(OC)ccc1O | 7.56
CCCN(CCCCNc1ccnc2cc(Cl)ccc12)Cc1cccs1 | 7.66
CCCN(CCCCNc1ccnc2cc(Cl)ccc12)Cc1ccco1 | 8.40

Each of the following entries comes with a recorded value; kindly state pIC50 for each.
1. CCCN(CCCCNc1ccnc2cc(Cl)ccc12)Cc1ccccc1O
2. CCCN(CCCCNc1ccnc2cc(Cl)ccc12)Cc1c(F)cccc1OC

Output:
1. 7.70
2. 7.95

Task: // returns reported pIC50 for input `CCCN(CCCCNc1ccnc2cc(Cl)ccc12)Cc1cc(O)ccc1O`
Output: 8.05

###

- Tested on: Plasmodium falciparum
- RUN_DESCRIPTION: Antimalarial activity against chloroquine-sensitive Plasmodium falciparum 3D7
- Format: functional, organism-based
What IC50 was measured for each of the following?
One number for each entry, in nM.

Here's what some known entries look like.
CCCN(CCCNc1ccnc2cc(Cl)ccc12)Cc1ccccc1O | 0.65
CCCN(CCCCNc1ccnc2cc(Cl)ccc12)Cc1c(F)cccc1OC | 10
CCCN(CCCCNc1ccnc2cc(Cl)ccc12)Cc1ccc(Cl)o1 | 4.3
CCCN(CCCCNc1ccnc2cc(Cl)ccc12)Cc1cccc(OC)c1O | 1
CCCN(CCCNc1ccnc2cc(Cl)ccc12)Cc1cccs1 | 32.1
CCCN(CCCNc1ccnc2cc(Cl)ccc12)Cc1ccco1 | 12.2
CCCN(CCCCNc1ccnc2cc(Cl)ccc12)Cc1cc(OC)ccc1O | 6.8
CCCN(CCCNc1ccnc2cc(Cl)ccc12)Cc1cc(F)ccc1OC | 5.2

Each of the following entries comes with a recorded value; kindly state IC50 for each.
1. CCCN(CCCCNc1ccnc2cc(Cl)ccc12)Cc1cccc(F)c1O
2. CCCN(CCCNc1ccnc2cc(Cl)ccc12)Cc1cc(O)ccc1O
3. CCCN(CCCCNc1ccnc2cc(Cl)ccc12)Cc1ccc(C)o1

Output:
[1.4, 2.9, 7.4]
